Items are presented alongside their recorded BMPRIb binding relative to wild type.
# System name: T1, BMPRIb receptor-Fc fusion (UniProt O00238 14-126)
# T1 construct: BMP receptor-Fc fusion, detected with anti-human IgG-HRP; also called ALK-6
# T1 sequence (looked up): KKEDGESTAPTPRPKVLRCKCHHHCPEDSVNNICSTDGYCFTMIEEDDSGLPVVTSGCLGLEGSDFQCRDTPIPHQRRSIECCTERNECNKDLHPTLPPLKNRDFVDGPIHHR
# Procedure details: ELISA-like, fixed volume of conditioned media, receptor-Fc

>  <Binder>
BMP-7 variant K39D (ligand) STGGKQRSQNRSKTPKNQEALRMASVAENSSSDQRQACDKHELYVSFRDLGWQDWIIAPEGYAAYYCEGECAFPLNSYMNATNHAIVQTLVHFINPETVPKPCCAPTQLNAISVLYFDDSSNVILKKYRNMVVRACGCH

>  <BMPRIb binding relative to wild type>
0.82 relative to wt = 1.0

$$$$
>  <Binder>
BMP-7 variant Q53A (ligand) STGGKQRSQNRSKTPKNQEALRMASVAENSSSDQRQACKKHELYVSFRDLGWADWIIAPEGYAAYYCEGECAFPLNSYMNATNHAIVQTLVHFINPETVPKPCCAPTQLNAISVLYFDDSSNVILKKYRNMVVRACGCH

>  <BMPRIb binding relative to wild type>
0.65 relative to wt = 1.0

$$$$

Name the recorded BMPRIb binding relative to wild type for BMP-7 variant R134P (ligand) STGGKQRSQNRSKTPKNQEALRMASVAENSSSDQRQACKKHELYVSFRDLGWQDWIIAPEGYAAYYCEGECAFPLNSYMNATNHAIVQTLVHFINPETVPKPCCAPTQLNAISVLYFDDSSNVILKKYRNMVVPACGCH .
0.6 relative to wt = 1.0

Name the recorded BMPRIb binding relative to wild type for BMP-7 variant R134S (ligand) STGGKQRSQNRSKTPKNQEALRMASVAENSSSDQRQACKKHELYVSFRDLGWQDWIIAPEGYAAYYCEGECAFPLNSYMNATNHAIVQTLVHFINPETVPKPCCAPTQLNAISVLYFDDSSNVILKKYRNMVVSACGCH .
1.15 relative to wt = 1.0
